Test system: Aeromonas enteropelogenes
measurement description: Activity of Aeromonas enteropelogenes Beta-lactamase TRU1
outcome measure: kcat (s⁻¹)
Answer format: numeric, s⁻¹ implied, no suffix.

compound smiles	outcome measure	observed
Cc1nnc(SCC2=C(C(=O)O)N3C(=O)[C@@H](NC(=O)Cn4cnnn4)[C@H]3SC2)s1	kcat	0.55

Looking for the measured kcat of CCN1CCN(C(=O)N[C@@H](C(=O)N[C@@H]2C(=O)N3[C@@H]2SC(C)(C)[C@@H]3C(=O)O)c2ccccc2)C(=O)C1=O , can you help?
0.54

Looking for the measured kcat of CC(=O)OCC1=C(C(=O)O)N2C(=O)[C@@H](NC(=O)Cc3cccs3)[C@H]2SC1 , can you help?
470

Looking for the measured kcat of CO/N=C(\C(=O)N[C@@H]1C(=O)N2C(C(=O)O)=C(COC(C)=O)CS[C@H]12)c1csc(N)n1 , can you help?
0.015

Looking for the measured kcat of CC(C)(O/N=C(\C(=O)N[C@@H]1C(=O)N2C(C(=O)[O-])=C(C[n+]3ccccc3)CS[C@H]12)c1csc(N)n1)C(=O)O , can you help?
0.11

====

Tested on: Escherichia coli K-12
measurement description: Ratio of Kcat Km for Escherichia coli K-12 Beta-lactamase AmpC
// reported kcat/Km for each item listed
Answer format: numeric, ×10⁶ /M/s implied, no suffix.

compound smiles	observed
CO/N=C(\C(=O)N[C@@H]1C(=O)N2C(C(=O)O)=C(COC(N)=O)CS[C@H]12)c1ccco1	1

Looking for the measured kcat/Km of O=C(Cc1cccs1)N[C@@H]1C(=O)N2C(C(=O)[O-])=C(C[n+]3ccccc3)CS[C@H]12 , can you help?
9.5

====

System: Aeromonas caviae
measurement description: Activity of Aeromonas caviae Beta-lactamase CAV1
// reported Km for each item listed
Please answer using a numeric value trailed by its unit.

Some entries whose results are on file:
compound	test system	Km
O=C(Cc1cccs1)N[C@@H]1C(=O)N2C(C(=O)[O-])=C(C[n+]3ccccc3)CS[C@H]12	Aeromonas caviae	770 µM
CO/N=C(\C(=O)N[C@@H]1C(=O)N2C(C(=O)O)=C(COC(C)=O)CS[C@H]12)c1csc(N)n1 [CEFOTAXIME]	Aeromonas caviae	0.1 µM
CO[C@@]1(NC(=O)Cc2cccs2)C(=O)N2C(C(=O)O)=C(COC(N)=O)CS[C@@H]21 [CEFOXITIN]	Aeromonas caviae	0.4 µM

Looking for the measured Km of CC(=O)OCC1=C(C(=O)O)N2C(=O)[C@@H](NC(=O)Cc3cccs3)[C@H]2SC1 [CEPHALOTHIN] , can you help?
500 µM

====

Test system: Aeromonas caviae
measurement description: Activity of Aeromonas caviae Beta-lactamase CAV1
// reported Km for each item listed
Answer format: numeric, µM implied, no suffix.

Some entries whose results are on file:
compound	Km [µM]
CC(C)(O/N=C(\C(=O)N[C@@H]1C(=O)N2C(C(=O)[O-])=C(C[n+]3ccccc3)CS[C@H]12)c1csc(N)n1)C(=O)O [CEFTAZIDIME]	0.6
CO/N=C(\C(=O)N[C@@H]1C(=O)N2C(C(=O)[O-])=C(C[N+]3(C)CCCC3)CS[C@H]12)c1csc(N)n1	690

Looking for the measured Km of CC1(C)S[C@@H]2[C@H](NC(=O)Cc3ccccc3)C(=O)N2[C@H]1C(=O)O [PENICILLIN G] , can you help?
8.7

====

Test system: Escherichia coli K-12
measurement description: Ratio of Kcat Km for Escherichia coli K-12 Beta-lactamase AmpC
// reported kcat/Km for each item listed
Answer format: numeric, ×10⁶ /M/s implied, no suffix.

compound smiles	outcome measure	observed
CC1(C)S[C@@H]2[C@H](NC(=O)[C@H](N)c3ccccc3)C(=O)N2[C@H]1C(=O)O	kcat/Km	1.2

Let's switch to this compound now.
Test system Escherichia coli K-12; read-out kcat/Km; what value for CC(=O)OCC1=C(C(=O)O)N2C(=O)[C@@H](NC(=O)Cc3cccs3)[C@H]2SC1 ?
7

====

// reported kcat for each item listed
Tested on: Escherichia coli K-12
measurement description: Activity of Escherichia coli K-12 Beta-lactamase AmpC
Answer format: numeric, s⁻¹ implied, no suffix.

compound smiles	kcat / s⁻¹
CC(=O)OCC1=C(C(=O)O)N2C(=O)[C@@H](NC(=O)Cc3cccs3)[C@H]2SC1	300
CO/N=C(\C(=O)N[C@@H]1C(=O)N2C(C(=O)O)=C(COC(N)=O)CS[C@H]12)c1ccco1	0.15
CC1(C)S[C@@H]2[C@H](NC(=O)Cc3ccccc3)C(=O)N2[C@H]1C(=O)O	45
CO[C@@]1(NC(=O)Cc2cccs2)C(=O)N2C(C(=O)O)=C(COC(N)=O)CS[C@@H]21	0.2
CO/N=C(\C(=O)N[C@@H]1C(=O)N2C(C(=O)O)=C(COC(C)=O)CS[C@H]12)c1csc(N)n1	0.17

Looking for the measured kcat of O=C(Cc1cccs1)N[C@@H]1C(=O)N2C(C(=O)[O-])=C(C[n+]3ccccc3)CS[C@H]12 , can you help?
38

Looking for the measured kcat of CC1(C)S[C@@H]2[C@H](NC(=O)[C@H](N)c3ccccc3)C(=O)N2[C@H]1C(=O)O , can you help?
4.2

====

System: Aeromonas caviae
measurement description: Ratio of Kcat Km for Aeromonas caviae Beta-lactamase CAV1
// reported kcat/Km for each item listed
Answer format: numeric, ×10⁶ /M/s implied, no suffix.

compound smiles	test system	outcome measure	endpoint unit	observed
CC(=O)OCC1=C(C(=O)O)N2C(=O)[C@@H](NC(=O)Cc3cccs3)[C@H]2SC1	Aeromonas caviae	kcat/Km	×10⁶ /M/s	1.1

Looking for the measured kcat/Km of CO[C@@]1(NC(=O)Cc2cccs2)C(=O)N2C(C(=O)O)=C(COC(N)=O)CS[C@@H]21 , can you help?
1.3

Looking for the measured kcat/Km of CO/N=C(\C(=O)N[C@@H]1C(=O)N2C(C(=O)O)=C(COC(C)=O)CS[C@H]12)c1csc(N)n1 , can you help?
2

====

Tested on: Aeromonas enteropelogenes
measurement description: Activity of Aeromonas enteropelogenes Beta-lactamase TRU1
// reported log10 kcat for each item listed
Response schema: value (number) is log10 of kcat in units of s⁻¹.

Some entries whose results are on file:
compound smiles	observed
CC1(C)S[C@@H]2[C@H](NC(=O)[C@H](N)c3ccccc3)C(=O)N2[C@H]1C(=O)O	-0.20
CO[C@@]1(NC(=O)Cc2cccs2)C(=O)N2C(C(=O)O)=C(COC(N)=O)CS[C@@H]21	-0.06
CC1=C(C(=O)O)N2C(=O)[C@@H](NC(=O)[C@H](N)c3ccccc3)[C@H]2SC1	2.20
CO/N=C(\C(=O)N[C@@H]1C(=O)N2C(C(=O)O)=C(CSc3nc(=O)c(O)nn3C)CS[C@H]12)c1csc(N)n1	-1.38
CC1(C)S[C@@H]2[C@H](NC(=O)Cc3ccccc3)C(=O)N2[C@H]1C(=O)O	1.43

Test system Aeromonas enteropelogenes; read-out log10 kcat; what value for CO/N=C(\C(=O)N[C@@H]1C(=O)N2C(C(=O)O)=C(COC(N)=O)CS[C@H]12)c1ccco1 ?
-1.38

Test system Aeromonas enteropelogenes; read-out log10 kcat; what value for CO/N=C(\C(=O)N[C@@H]1C(=O)N2C(C(=O)[O-])=C(C[n+]3cccc4c3CCC4)CS[C@H]12)c1csc(N)n1 ?
1.36

Test system Aeromonas enteropelogenes; read-out log10 kcat; what value for CO/N=C(\C(=O)N[C@@H]1C(=O)N2C(C(=O)[O-])=C(C[N+]3(C)CCCC3)CS[C@H]12)c1csc(N)n1 ?
0.97
